- Test system: HeLa cells
- Protocol Notes: MTT antiproliferative assay against HeLa cells
- Type: cell-based, Human
- Particulars: Homo sapiens, MTT assay, 48 h treatment, relative to DMSO control, two independent determinations, each in quadruplicate, read-out: GI50 (μM)± SD
Quantity: GI50 (µM)

> print(dat)
                                smiles.repr  quantity  value.reported
1  C#CCCCc1nc(=O)c2c(-c3ccccc3C)c(C(=O)c3ccccc3)[nH]c2[nH]1      GI50           0.142
2  C#CCCCc1nc(=O)c2c(-c3ccc(N4CCOCC4)cc3)c(C(=O)c3ccccc3)[nH]c2[nH]1      GI50            11.3
3  C#CCCCc1nc(=O)c2c(-c3ccccc3)c(C(=O)c3ccc(N4CCOCC4)cc3)[nH]c2[nH]1      GI50           0.025
4  C#CCCCc1nc(=O)c2c(-c3ccccc3)c(C(=O)c3ccccc3C)[nH]c2[nH]1      GI50           0.062
5  C#CCCCc1nc(=O)c2c(-c3c(C)cccc3C)c(C(=O)c3ccccc3)[nH]c2[nH]1      GI50             2.3
6  CC#CCCc1nc(=O)c2c(-c3ccccc3)c(C(=O)c3ccc(N4CCOCC4)cc3)[nH]c2[nH]1      GI50           0.043

These data points were gathered from paper PMC11215747.
